- tgt: Photosystem II protein D1 (Spinacia oleracea, UniProt P69560)
- experimental.protocol: Inhibition of photosystem II mediated oxygen evolution in Spinacia oleracea (spinach) thylakoid measured for 25 sec
- study.conditions: read-out: I50
observable: IC50
Note: state the figure and append the unit.

[[record]]
compound = "CCC/C=C\\C/C=C\\CCCCCCCC1=C(O)C(=O)C=C(OC)C1=O [Sorgoleone-360]"
tgt = "Photosystem II protein D1 (Spinacia oleracea, UniProt P69560)"
observable = "IC50"
reported_result = "104 nM"

[[record]]
compound = "CCCCCC/C=C\\CCCCCCCC1=C(O)C(=O)C=C(OC)C1=O [Sorgoleone-362]"
tgt = "Photosystem II protein D1 (Spinacia oleracea, UniProt P69560)"
observable = "IC50"
reported_result = "109 nM"

[[record]]
compound = "C=CC/C=C\\C/C=C\\CCCCCCCC1=C(O)C(=O)C=C(OC)C1=O [SORGOLEONE]"
tgt = "Photosystem II protein D1 (Spinacia oleracea, UniProt P69560)"
observable = "IC50"
reported_result = "65 nM"


Next compound, IC50 to be filled in.
Exercise: If you can, please state the reported IC50 value of CCCCCCCCCCCCCC1=C(O)C(=O)C=C(OC)C1=O [Sorgoleone-364] .
Key: 103 nM
